# Test system: DNA1 (full-match antiparallel DNA)
# experimental-protocol: Melting temperature (Tm) of PNA:DNA duplexes, full-match DNA
# Format: binding
# condition-label: UV absorbance at 260 nm, PBS buffer pH 7 (NaCl 100 mM, NaH2PO4 10 mM, EDTA 0.1 mM) with urea 5 M, strand concentration 5 μM
parameter-measured: Tm, DNA1 in urea (5 M) (°C)
Report only the number, with the unit °C understood.

Consider the worked cases shown below.
H-C5LArgC5LArgG5LArgC5LArgT5LArgG5LArgT5LArgC5LArgACACGCACAG-NH2 [PNA4, 5L Arg (C5) backbone-modified 18-mer PNA, model 2, stretch of consecutive modified monomers] = 77
H-CC2DARGGC2DARGTG2DARGTC2DARGAC2DARGAC2DARGGC2DARGAC2DARG AG-NH2 [PNA5, 2D Arg (C2) backbone-modified 18-mer PNA, model 1, alternating modified monomers] = 74

For the substance H-CCGCTGTCACACGCACAG-NH2 [PNA1, unmodified achiral "naked" 18-mer PNA targeted against miR-210, reference compound] , what Tm, DNA1 in urea (5 M) is on record?
70

For the substance H-R8CCGCTGTCACACGCACAG-NH2 [PNA2, 18-mer anti-miR-210 PNA conjugated with octaarginine (R8) peptide, reference compound] , what Tm, DNA1 in urea (5 M) is on record?
80

For the substance H-C2DArgC2DArgG2DArgC2DArgT2DArgG2DArgT2DArgC2DArgACACGCACAG-NH2 [PNA6, 2D Arg (C2) backbone-modified 18-mer PNA, model 2, stretch of consecutive modified monomers] , what Tm, DNA1 in urea (5 M) is on record?
77

The reported numbers originate from paper PMC3401907.
